All values here come from paper PMC11513892.

ASSAY PROCEDURE: Clearance in mouse liver microsomes
Assay type: in vitro ADME
CONDITION INFO: CSV supplement
# t(1/2), Mouse Microsomes values compiled below

CC(C)(C)C(=O)N[C@H]1Cc2ccc(cc2)Oc2ccc(cc2NC(=O)c2ccccn2)C(=O)CNC(=O)[C@H](Cc2ccccc2)NC1=O [Compound 12]    <3 min

Input: Recorded t(1/2), Mouse Microsomes of CC(=O)N[C@H]1Cc2ccc(cc2)Oc2ccc(cc2NC(=O)c2ccccn2)C(=O)CNC(=O)[C@H](Cc2ccccc2)NC1=O [Compound 11] , please.
Output: 12,9 min

Input: Recorded t(1/2), Mouse Microsomes of CC(C)C[C@@H]1NC(=O)[C@@H](NC(=O)OC(C)(C)C)Cc2ccc(cc2)Oc2ccc(cc2NC(=O)c2ccccn2)C(=O)CNC1=O [Compound 10] , please.
Output: <3 min

Input: Recorded t(1/2), Mouse Microsomes of CC(C)(C)OC(=O)N[C@H]1Cc2ccc(cc2)Oc2ccc(cc2)C(=O)CNC(=O)[C@H](Cc2ccccc2)NC1=O [Compound 1] , please.
Output: <3 min

Input: Recorded t(1/2), Mouse Microsomes of COc1ccc(C[C@H](NC(=O)OC(C)(C)C)C(=O)N[C@@H](Cc2ccccc2)C(=O)NCC(=O)c2cccc(NC(=O)c3ccccn3)c2)cc1 [Compound 4] , please.
Output: <3 min

Input: Recorded t(1/2), Mouse Microsomes of CC(C)(C)OC(=O)N[C@H]1Cc2ccc(cc2)Oc2ccc(cc2NC(=O)c2ccccn2)C(=O)CNC(=O)[C@H](Cc2ccccc2)NC1=O [Compound 3] , please.
Output: <3 min
